Record form. Attribute: IC50. Fill in for each entry.
subject_of_test: UniProt:Q15858
experiment_notes: E-VIPR optical membrane potential assay with electrical stimulation
protocol_conditions: active against one or more sodium channels; assay and NaV subtype not specified for Table 3; read-out: IC50 Binned Activity Data

Given the compound CC[C@H](C)Nc1ccc(C(=O)N2CCC3(CC2)C[C@@H](OC(C)C)c2cc(F)ccc2O3)nc1 , what is its reported IC50? ≤ 2000 nM

CC(C)OC1CC2(CCN(C(=O)c3ccc(S(=O)(=O)C(C)C)cc3)CC2)Oc2c(F)cccc21 (stereo not shown) , same question. ≤ 2000 nM

CC(C)O[C@@H]1CC2(CCN(C(=O)c3ccc(S(=O)(=O)C(F)F)cc3)CC2)Oc2ccc(F)cc21 , same question. ≤ 2000 nM

COc1cc(C(=O)N2CCC3(CC2)CC(Oc2ccccc2C#N)c2ccccc2O3)ccc1OC(C)C (stereo not shown) , same question. ≤ 2000 nM

Cc1cc(C(=O)N2CCC3(CC2)C[C@@H](O)c2cc(F)ccc2O3)ccc1C(C)(C)O , same question. ≤ 2000 nM

CC(C)O[C@@H]1CC2(CCN(C(=O)c3ccc(S(=O)(=O)C(C)(C)C)cc3)CC2)Oc2ccc(F)cc21 , same question. ≤ 2000 nM

CC(C)Oc1ccc(C(=O)N2CCC3(CC2)C[C@@H](OC(C)C)c2ccccc2O3)c(F)c1 , same question. ≤ 2000 nM

Cc1cc(C(=O)N2CCC3(CC2)C[C@@H](OC(C)C)c2cc(F)ccc2O3)ccc1S(=O)(=O)C(C)C , same question. ≤ 2000 nM

COc1cc(C(=O)N2CCC3(CC2)CC(Oc2cncc(C#N)c2)c2ccccc2O3)ccc1OC(C)C (stereo not shown) , same question. ≤ 2000 nM

Cc1cc(C(=O)N2CCC3(CC2)C[C@@H](OC(C)C)c2cc(F)ccc2O3)ccc1OC1COC1 , same question. ≤ 2000 nM

CCc1ccc(C(=O)N2CCC3(CC2)C[C@@H](OC(C)C)c2ccccc2O3)cc1OC , same question. ≤ 2000 nM

CCOc1ccc(C(=O)N2CCC3(CC2)C[C@@H](OC(C)C)c2cc(F)ccc2O3)nc1 , same question. 2000 to 5000 nM

CCc1ccc(C(=O)N2CCC3(CC2)C[C@@H](OC(C)C)c2cc(F)ccc2O3)nc1 , same question. > 5000 nM

CC(C)OC1CC2(CCN(C(=O)c3ccc(S(=O)(=O)C(C)C)c(C#N)c3)CC2)Oc2ccc(F)cc21 (stereo not shown) , same question. ≤ 2000 nM

COc1cc(C(=O)N2CCC3(CC2)CC(Oc2cccnc2)c2ccccc2O3)ccc1OC(C)C (stereo not shown) , same question. ≤ 2000 nM

CC(C)O[C@@H]1CC2(CCN(C(=O)c3ccc(S(=O)(=O)C(C)C)cc3)CC2)Oc2c(F)cc(F)cc21 , same question. 2000 to 5000 nM

CC(C)OC1CC2(CCN(C(=O)c3ccc(C(C)(C)O)c(F)c3)CC2)Oc2cc(F)ccc21 (stereo not shown) , same question. ≤ 2000 nM

COCOC1=Cc2ccccc2OC12CCN(C(=O)c1ccc(OC(C)C)c(OC)c1)CC2 , same question. ≤ 2000 nM

COc1ccc(C(=O)N2CCC3(CC2)C[C@H](OC(C)C)c2ccccc2O3)cc1C , same question. ≤ 2000 nM

CC(C)O[C@@H]1CC2(CCN(C(=O)c3ccc(N4CCN(S(C)(=O)=O)CC4)cn3)CC2)Oc2ccc(F)cc21 , same question. ≤ 2000 nM

CC(C)Oc1ccc(C(=O)N2CCC3(CC2)C[C@@H](OC(C)C)c2cc(F)ccc2O3)cc1CN , same question. > 5000 nM

COCC1CC2(CCN(C(=O)c3ccc(OC(C)C)c(OC)c3)CC2)Oc2ccccc21 (stereo not shown) , same question. ≤ 2000 nM

* * *

subject_of_test: human NaV subtype, like NaV 1.7 (Homo sapiens, UniProt Q15858)
Sequence (Q15858 whole entry): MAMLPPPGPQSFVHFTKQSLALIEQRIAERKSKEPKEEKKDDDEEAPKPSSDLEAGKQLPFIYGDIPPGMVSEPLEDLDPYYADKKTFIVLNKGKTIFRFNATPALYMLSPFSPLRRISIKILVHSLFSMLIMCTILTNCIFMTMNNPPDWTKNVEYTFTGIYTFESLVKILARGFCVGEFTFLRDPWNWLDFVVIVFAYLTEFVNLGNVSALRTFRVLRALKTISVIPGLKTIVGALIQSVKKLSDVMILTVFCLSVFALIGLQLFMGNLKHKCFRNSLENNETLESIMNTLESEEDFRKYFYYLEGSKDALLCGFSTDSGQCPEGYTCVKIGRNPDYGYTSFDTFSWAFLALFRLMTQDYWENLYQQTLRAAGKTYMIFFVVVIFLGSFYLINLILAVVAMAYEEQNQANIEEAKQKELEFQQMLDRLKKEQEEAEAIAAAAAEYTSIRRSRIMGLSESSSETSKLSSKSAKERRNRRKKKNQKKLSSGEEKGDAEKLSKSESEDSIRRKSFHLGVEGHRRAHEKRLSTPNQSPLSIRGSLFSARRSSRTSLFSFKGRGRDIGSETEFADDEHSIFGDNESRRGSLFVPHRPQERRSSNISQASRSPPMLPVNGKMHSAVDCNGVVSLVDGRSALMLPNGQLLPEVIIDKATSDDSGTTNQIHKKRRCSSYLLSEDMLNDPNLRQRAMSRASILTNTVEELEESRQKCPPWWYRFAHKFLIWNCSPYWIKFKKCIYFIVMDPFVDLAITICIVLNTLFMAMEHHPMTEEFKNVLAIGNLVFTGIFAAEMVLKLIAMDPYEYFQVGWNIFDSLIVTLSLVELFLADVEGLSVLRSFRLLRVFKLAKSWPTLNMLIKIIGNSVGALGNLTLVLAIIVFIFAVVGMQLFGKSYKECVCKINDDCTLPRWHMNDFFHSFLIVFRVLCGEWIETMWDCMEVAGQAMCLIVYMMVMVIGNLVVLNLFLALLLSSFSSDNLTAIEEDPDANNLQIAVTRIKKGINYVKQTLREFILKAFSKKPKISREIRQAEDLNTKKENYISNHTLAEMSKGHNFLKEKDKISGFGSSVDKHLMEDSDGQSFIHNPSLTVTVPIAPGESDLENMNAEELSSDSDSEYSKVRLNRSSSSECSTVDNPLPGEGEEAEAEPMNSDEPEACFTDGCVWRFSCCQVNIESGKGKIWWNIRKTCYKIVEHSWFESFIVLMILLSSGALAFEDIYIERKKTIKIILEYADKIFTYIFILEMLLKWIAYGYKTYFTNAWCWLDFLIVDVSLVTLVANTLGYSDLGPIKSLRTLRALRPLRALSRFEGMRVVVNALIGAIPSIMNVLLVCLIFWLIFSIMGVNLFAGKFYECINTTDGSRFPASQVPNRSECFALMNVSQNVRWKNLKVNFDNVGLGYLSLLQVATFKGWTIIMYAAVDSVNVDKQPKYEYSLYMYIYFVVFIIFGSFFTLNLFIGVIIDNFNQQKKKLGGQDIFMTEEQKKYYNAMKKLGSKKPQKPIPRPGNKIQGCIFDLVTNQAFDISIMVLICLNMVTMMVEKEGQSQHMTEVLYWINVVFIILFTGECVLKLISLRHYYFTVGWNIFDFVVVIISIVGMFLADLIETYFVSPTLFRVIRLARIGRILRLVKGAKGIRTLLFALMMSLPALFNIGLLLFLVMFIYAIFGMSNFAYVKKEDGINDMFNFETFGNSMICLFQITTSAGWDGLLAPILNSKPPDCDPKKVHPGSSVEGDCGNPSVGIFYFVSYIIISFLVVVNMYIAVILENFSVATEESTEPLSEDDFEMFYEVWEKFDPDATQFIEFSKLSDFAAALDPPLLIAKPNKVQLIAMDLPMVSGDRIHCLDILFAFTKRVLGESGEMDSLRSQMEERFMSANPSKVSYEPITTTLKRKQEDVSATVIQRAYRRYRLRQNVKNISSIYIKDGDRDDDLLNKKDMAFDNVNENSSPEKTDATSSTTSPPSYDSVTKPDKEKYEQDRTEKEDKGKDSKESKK
experiment_notes: E-VIPR optical membrane potential assay with electrical stimulation
protocol_conditions: active against one or more sodium channels; assay and NaV subtype not specified for Table 3; read-out: IC50 Binned Activity Data
Record form. Attribute: IC50. Fill in for each entry.

Given the compound CC(C)Oc1ccc(C(=O)N2CCC3(CC2)C[C@@H](OC(C)C)c2ccccc2O3)cn1 , what is its reported IC50? > 5000 nM

CC(C)O[C@@H]1CC2(CCN(C(=O)c3ccc4c(cnn4C)c3)CC2)Oc2ccccc21 , same question. ≤ 2000 nM

CCO[C@@H]1CC2(CCN(C(=O)c3ccc(S(=O)(=O)CC(C)C)cc3)CC2)Oc2ccc(F)cc21 , same question. ≤ 2000 nM

COc1cc(C(=O)N2CCC3(CC2)Oc2ccccc2C(OC(C)C)C3(C)C)ccc1OC(C)C (stereo not drawn) , same question. ≤ 2000 nM

CC(C)O[C@@H]1CC2(CCN(C(=O)c3ccc(NC(C)(C)C)cn3)CC2)Oc2ccc(F)cc21 , same question. ≤ 2000 nM

CCO[C@@H]1CC2(CCN(C(=O)c3ccc(S(=O)(=O)C(C)C)cc3)CC2)Oc2ccc(F)cc21 , same question. 2000 to 5000 nM

CC(C)O[C@@H]1CC2(CCN(C(=O)c3ccc4[nH]ncc4c3)CC2)Oc2ccccc21 , same question. 2000 to 5000 nM

CC(C)O[C@@H]1CC2(CCN(C(=O)c3ccc(N4CC5CC4CO5)cn3)CC2)Oc2ccc(F)cc21 (stereo partly drawn) , same question. ≤ 2000 nM

CCS(=O)(=O)c1ccc(C(=O)N2CCC3(CC2)C[C@@H](OC(C)C)c2cc(F)cc(F)c2O3)cc1C , same question. 2000 to 5000 nM

CC(C)O[C@H]1CC2(CCN(C(=O)c3ccc4[nH]ncc4c3)CC2)Oc2ccccc21 , same question. 2000 to 5000 nM

CC(C)O[C@H]1CC2(CCN(C(=O)c3ccc(C(C)(C)O)cc3)CC2)Oc2ccccc21 , same question. 2000 to 5000 nM

COc1cc(C(=O)N2CCC3(CC2)CC(OC(C)C)c2ccccc2O3)ccc1OC(C)C (stereo not drawn) , same question. ≤ 2000 nM

CCOc1ccc(C(=O)N2CCC3(CC2)C[C@@H](OC(C)C)c2ccccc2O3)cc1F , same question. ≤ 2000 nM

Cc1nc(C(=O)N2CCC3(CC2)C[C@@H](OC(C)C)c2ccccc2O3)ccc1OC(C)C , same question. ≤ 2000 nM

CC(C)Oc1ccc(C(=O)N2CCC3(CC2)CC(OC(C)C)c2ccccc2S3(=O)=O)cc1 (stereo not drawn) , same question. ≤ 2000 nM

* * *

subject_of_test: human NaV subtype, like NaV 1.7 (Homo sapiens, UniProt Q15858)
experiment_notes: E-VIPR optical membrane potential assay with electrical stimulation
Format: cell-based
protocol_conditions: active against one or more sodium channels; assay and NaV subtype not specified for Table 3; read-out: IC50 Binned Activity Data
pIC50: −log10 of the molar value.
quantity_name: pIC50

Given the compound CC(C)OC1CC2(CCN(C(=O)c3ccc(S(=O)(=O)CC4CC4)cn3)CC2)Oc2ccc(F)cc21 (stereo not shown) [Compound 30] , what is its reported pIC50? 5.30 to 5.70

COc1ccc(C(=O)N2CCC3(CC2)CC(c2ccccc2)c2ccccc2O3)cc1OC (stereo not shown) [Compound 18] , same question. ≥ 5.70

CC(C)O[C@@H]1CC2(CCN(C(=O)c3ccc(C(C)(C)O)c(F)c3)CC2)Oc2cc(F)ccc21 [Compound 130] , same question. 5.30 to 5.70

Cc1nc(C(=O)N2CCC3(CC2)C[C@H](OC(C)C)c2ccccc2O3)ccc1OC(C)C [Compound 107] , same question. ≥ 5.70

* * *

subject_of_test: human NaV subtype, like NaV 1.7 (Homo sapiens)
experiment_notes: E-VIPR optical membrane potential assay with electrical stimulation
protocol_conditions: active against one or more sodium channels; assay and NaV subtype not specified for Table 3; read-out: IC50 Binned Activity Data
Record form. Attribute: IC50. Fill in for each entry.

Given the compound CC(C)OCC1CC2(CCN(C(=O)c3ccc(OC(C)C)c(CO)c3)CC2)Oc2ccccc21 (stereo not shown) , what is its reported IC50? ≤ 2 µM

CC(C)Oc1ccc(C(=O)N2CCC3(CC2)CC(OC(C)C)c2ccccc2O3)cc1C#N (stereo not shown) , same question. ≤ 2 µM

CC(C)O[C@@H]1CC2(CCN(C(=O)c3ccc(N4CCC[C@H]4C)cn3)CC2)Oc2ccc(F)cc21 , same question. ≤ 2 µM

CCO[C@@H]1CC2(CCN(C(=O)c3ccc(S(=O)(=O)C(F)F)cc3)CC2)Oc2ccc(F)cc21 , same question. > 5 µM

* * *

subject_of_test: human NaV subtype, like NaV 1.7 (Homo sapiens)
experiment_notes: E-VIPR optical membrane potential assay with electrical stimulation
protocol_conditions: active against one or more sodium channels; assay and NaV subtype not specified for Table 3; read-out: IC50 Binned Activity Data
pIC50: −log10 of the molar value.
Record form. Attribute: pIC50. Fill in for each entry.

Given the compound CC(C)O[C@@H]1CC2(CCN(C(=O)c3ccc(N(C)CCN(C)C)cn3)CC2)Oc2ccc(F)cc21 , what is its reported pIC50? < 5.30

CCc1ccc(C(=O)N2CCC3(CC2)C[C@@H](OC(C)C)c2cc(F)ccc2O3)cc1OC , same question. ≥ 5.70

COc1cc(C(=O)N2CCC3(CC2)C[C@@H](OC(C)C)c2ccccc2O3)ccc1OCCCO , same question. 5.30 to 5.70

CC(C)O[C@@H]1CC2(CCN(C(=O)c3ccc(N(C)C(C)C)cn3)CC2)Oc2ccc(F)cc21 , same question. ≥ 5.70

CC(C)OC1CC2(CCN(C(=O)c3ccccc3OC(F)(F)F)CC2)Oc2ccccc21 (stereo not shown) , same question. ≥ 5.70

Cc1cc(S(=O)(=O)C(C)C)ccc1C(=O)N1CCC2(CC1)C[C@@H](OC(C)C)c1cc(F)ccc1O2 , same question. ≥ 5.70

Cc1cc(C(F)F)n2ncc(C(=O)N3CCC4(CC3)C[C@H](OC(C)C)c3ccccc3O4)c2n1 , same question. ≥ 5.70
